Where these numbers come from: patent US12389911B2

Tested on: Two-spotted spider mite (Tetranychus urticae)
Experiment: Acaricidal action on two-spotted spider mite (kidney bean leaf disk spray)
Assay type: in vivo
Conditions: 500 ppm, adult females, 25° C., two days after treatment
Method: Acaricidal Action on Two-Spotted Spider Mite (Tetranychus urticae) Leaf disk having a diameter of 2 cm was prepared by leaves of kidney bean, and the leaf disk was placed on the wetted filter paper. […] Two days after the treatment of an agrochemical dispersion, the dead mites were counted, the corrected mortality rate was calculated according to the formula shown below, and the acaricidal efficacy was evaluated according to the criteria of Test Example 2. […]
MEASURE: acaricidal efficacy (corrected mortality rate), activity level

The following compounds have reported results that may help.
SMILES TEXT: CCc1nn(-c2nc3ccccc3n2S(=O)(=O)CC)cc1C(=O)OC(C)(C)C
REPORTED RESULT: D or higher
--
SMILES TEXT: CCS(=O)(=O)n1c(-n2cc(/C=C/C(=O)OC(C(F)(F)F)C(F)(F)F)c(C(F)(F)F)n2)nc2ccccc21
REPORTED RESULT: D or higher
--
SMILES TEXT: CCS(=O)(=O)n1c(-n2cc(C(=O)OC(C)(C)C)c(/C=C/C3CC3)n2)nc2ccccc21
REPORTED RESULT: D or higher
--
SMILES TEXT: CCS(=O)(=O)n1c(-n2cc(I)c(C(=O)OC(C)(C)C)n2)nc2ccccc21
REPORTED RESULT: D or higher
--
SMILES TEXT: CCS(=O)(=O)n1c(-n2cc(C#CC(C)(C)C)c(C(F)(F)F)n2)nc2ccccc21
REPORTED RESULT: D or higher
--
SMILES TEXT: CCS(=O)(=O)n1c(-n2nc(C(F)(F)F)c(Br)c2C)nc2ccccc21
REPORTED RESULT: D or higher
--
SMILES TEXT: C#CCOc1nn(-c2nc3ccccc3n2S(=O)(=O)CC)cc1C(=O)OC(C)(C)C
REPORTED RESULT: D or higher
--
SMILES TEXT: CCS(=O)(=O)n1c(-n2cc(C#N)c(C(=O)OC(C)(C)C)n2)nc2ccccc21
REPORTED RESULT: D or higher
--
SMILES TEXT: CCS(=O)(=O)n1c(-n2cc(CCc3ccc(F)cc3)c(C(F)(F)F)n2)nc2ccccc21
REPORTED RESULT: D or higher
--
SMILES TEXT: CCS(=O)(=O)n1c(-n2cc(S(=O)(=O)C(C)C)c(C(F)(F)F)n2)nc2ccccc21
REPORTED RESULT: D or higher

// acaricidal efficacy (corrected mortality rate), activity level (Two-spotted spider mite (Tetranychus urticae)) for CCS(=O)(=O)n1c(-n2cc(C(=O)OC(C)(C)C)c(Br)n2)nc2ccccc21 = D or higher

Reading of acaricidal efficacy (corrected mortality rate), activity level for CCS(=O)(=O)n1c(-n2cnc(C(F)(F)F)c2)nc2ccccc21 with Two-spotted spider mite (Tetranychus urticae): D or higher

The reported acaricidal efficacy (corrected mortality rate), activity level value, Two-spotted spider mite (Tetranychus urticae), for CCOC(=O)c1cn(-c2nc3ccccc3n2S(=O)(=O)CC)nc1OCC(F)(F)C(F)(F)F reads D or higher

Reading of acaricidal efficacy (corrected mortality rate), activity level for CCS(=O)(=O)n1c(-n2cc(C(=O)OC(C)(C)C)c(OCC(F)(F)C(F)(F)F)n2)nc2ccccc21 with Two-spotted spider mite (Tetranychus urticae): D or higher

Test item CCS(=O)(=O)n1c(-n2cc(CCC(C)(C)C)c(C(F)(F)F)n2)nc2ccccc21 ; Two-spotted spider mite (Tetranychus urticae); reported acaricidal efficacy (corrected mortality rate), activity level was D or higher

Entry CCCc1nn(-c2nc3ccccc3n2S(=O)(=O)CC)cc1C(=O)OC(C)(C)C , Two-spotted spider mite (Tetranychus urticae) data, acaricidal efficacy (corrected mortality rate), activity level value: D or higher
